- System tested: Histone deacetylase 8 (Homo sapiens, UniProt Q9BY41)
- Sequence (Q9BY41 whole entry, the tested form may be a part): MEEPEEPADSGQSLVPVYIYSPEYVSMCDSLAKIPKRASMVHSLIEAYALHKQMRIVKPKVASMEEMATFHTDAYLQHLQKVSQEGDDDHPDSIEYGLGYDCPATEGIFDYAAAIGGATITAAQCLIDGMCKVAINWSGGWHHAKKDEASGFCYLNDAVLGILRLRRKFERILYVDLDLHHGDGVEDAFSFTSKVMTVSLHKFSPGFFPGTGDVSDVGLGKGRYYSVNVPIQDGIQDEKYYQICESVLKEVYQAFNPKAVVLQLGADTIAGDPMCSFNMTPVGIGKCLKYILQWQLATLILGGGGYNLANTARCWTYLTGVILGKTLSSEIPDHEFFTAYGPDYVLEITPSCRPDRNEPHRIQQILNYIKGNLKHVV
- Method notes: Inhibition of recombinant C-terminal His-tagged and N-terminal Streptavidin2-tagged human HDAC8 (1 to 377 residues) expressed in baculovirus infected insect cells using RHK-K(Ac)-AMC as substrate after 60 mins by fluorescence assay
pIC50: −log10 of the molar value.
# pIC50 per record follows
Quantity kind: pIC50

- Smiles input: "O=C(/C=C/c1ccc(CNCCCN2c3ccccc3CCc3ccc(Cl)cc32)cc1)NO"
  Quantity kind: "pIC50"
  Test result: 6.27
- Smiles input: "O=C(CCCCCCCCC(=O)NCCCN1c2ccccc2CCc2ccc(Cl)cc21)NO"
  Quantity kind: "pIC50"
  Test result: 6.06
- Smiles input: "O=C(/C=C/c1cccc(S(=O)(=O)NCCCN2c3ccccc3CCc3ccc(Cl)cc32)c1)NO"
  Quantity kind: "pIC50"
  Test result: 5.67
- Smiles input: "O=C(CCCCCC(=O)NCCCN1c2ccccc2CCc2ccc(Cl)cc21)NO"
  Quantity kind: "pIC50"
  Test result: 6.46
- Smiles input: "O=C(CCCC(=O)NCCCN1c2ccccc2CCc2ccc(Cl)cc21)NO"
  Quantity kind: "pIC50"
  Test result: 5.73

====

- Method notes: AUC (0 to infinity) in Sprague-Dawley rat at 10 mg/kg, po measured up to 24 hrs
- Format: ADME, organism-based
- Design: dose 10 mg/kg, time infinity, route oral
- Condition context: in vivo

- Smiles input: "O=C(/C=C/c1ccc(CNCCCN2c3ccccc3CCc3ccc(Cl)cc32)cc1)NO"
  Reading unit: "ng·h/mL"
  AUC(0-inf): 166

====

- Test system: SH-SY5Y
- Method notes: Neuroprotective activity against OGD-induced hypoxic injury in human SH-SY5Y cells assessed as LDH release at 5 uM incubated under oxygen/glucose deprivation-induced hypoxic medium by LDH assay (reference value: 27.47 +/- 3.23 %)
- Format: functional

- Smiles input: "O=C(CCCCCC(=O)NCCCN1c2ccccc2CCc2ccc(Cl)cc21)NO"
  Activity / %: 86.54
- Smiles input: "O=C(/C=C/c1ccc(CNCCCN2c3ccccc3CCc3ccc(Cl)cc32)cc1)NO"
  Activity / %: 17.73
- Smiles input: "O=C(CCCCCCCC(=O)NCCCN1c2ccccc2CCc2ccc(Cl)cc21)NO"
  Activity / %: 100.96
- Smiles input: "O=C(CCCCCCC(=O)NCCCN1c2ccccc2CCc2ccc(Cl)cc21)NO"
  Activity / %: 74.3
- Smiles input: "O=C(CCCCCCCCC(=O)NCCCN1c2ccccc2CCc2ccc(Cl)cc21)NO"
  Activity / %: 84.35

====

- System tested: Histone deacetylase 2 (Homo sapiens, UniProt Q92769)
- Sequence (Q92769 whole entry, the tested form may be a part): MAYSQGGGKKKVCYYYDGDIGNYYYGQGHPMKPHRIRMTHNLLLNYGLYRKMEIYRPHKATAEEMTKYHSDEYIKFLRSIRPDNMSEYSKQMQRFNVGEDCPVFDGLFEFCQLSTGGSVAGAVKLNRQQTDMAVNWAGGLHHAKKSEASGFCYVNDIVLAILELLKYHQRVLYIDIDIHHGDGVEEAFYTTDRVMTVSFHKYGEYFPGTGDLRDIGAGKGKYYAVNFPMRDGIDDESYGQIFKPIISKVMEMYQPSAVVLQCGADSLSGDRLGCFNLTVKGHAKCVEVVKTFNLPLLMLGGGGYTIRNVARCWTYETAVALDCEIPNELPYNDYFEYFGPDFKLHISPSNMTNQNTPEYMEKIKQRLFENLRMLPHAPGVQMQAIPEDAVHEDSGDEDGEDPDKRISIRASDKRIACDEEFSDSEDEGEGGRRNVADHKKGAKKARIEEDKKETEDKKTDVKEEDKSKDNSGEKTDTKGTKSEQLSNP
- Method notes: Inhibition of recombinant human C-terminal GST-tagged HDAC2 (1 to 488 residues) expressed in baculovirus infected sf21 cells using RHK-K(Ac)-AMC as substrate after 60 mins by fluorimetry assay
- Condition context: read-out: IC50
pIC50: −log10 of the molar value.

- Smiles input: "O=C(CCCCCCCC(=O)NCCCN1c2ccccc2CCc2ccc(Cl)cc21)NO"
  pIC50: 5.56
- Smiles input: "O=C(CCCCC(=O)NCCCN1c2ccccc2CCc2ccc(Cl)cc21)NO"
  pIC50: 5.02
- Smiles input: "O=C(CCCC(=O)NCCCN1c2ccccc2CCc2ccc(Cl)cc21)NO"
  pIC50: 5.22
- Smiles input: "O=C(CCCCCC(=O)NCCCN1c2ccccc2CCc2ccc(Cl)cc21)NO"
  pIC50: 5.40
- Smiles input: "O=C(NO)c1ccc(C(=O)NCCCN2c3ccccc3CCc3ccc(Cl)cc32)cc1"
  pIC50: 5.06
- Smiles input: "O=C(/C=C/c1ccc(CNCCCN2c3ccccc3CCc3ccc(Cl)cc32)cc1)NO"
  pIC50: 5.18
- Smiles input: "O=C(/C=C/c1cccc(S(=O)(=O)NCCCN2c3ccccc3CCc3ccc(Cl)cc32)c1)NO"
  pIC50: 5.07

These measurements were taken from ChEMBL document CHEMBL4602647.
